Each item that follows carries a reported IC50.
Measured On: Recombinant human KIF18A (1-467His-tagged) protein (Homo sapiens, UniProt Q8NI77)
Construct: Recombinant human KIF18A (1-467His-tagged) protein; His
Sequence (Q8NI77 1-467): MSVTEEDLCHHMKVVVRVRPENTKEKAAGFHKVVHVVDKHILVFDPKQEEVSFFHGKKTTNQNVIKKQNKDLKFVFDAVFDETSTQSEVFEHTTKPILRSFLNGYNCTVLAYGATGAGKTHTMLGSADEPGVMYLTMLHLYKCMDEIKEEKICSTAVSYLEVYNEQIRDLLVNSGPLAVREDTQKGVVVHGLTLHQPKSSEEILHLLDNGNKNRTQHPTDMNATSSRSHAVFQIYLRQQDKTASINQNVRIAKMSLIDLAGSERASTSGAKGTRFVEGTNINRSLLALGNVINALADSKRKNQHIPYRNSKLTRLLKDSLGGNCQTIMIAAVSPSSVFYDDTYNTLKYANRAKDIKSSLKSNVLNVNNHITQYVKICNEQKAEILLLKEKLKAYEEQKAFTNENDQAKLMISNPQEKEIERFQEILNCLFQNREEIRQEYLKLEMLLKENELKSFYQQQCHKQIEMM
Sequence (P02550 whole entry partner): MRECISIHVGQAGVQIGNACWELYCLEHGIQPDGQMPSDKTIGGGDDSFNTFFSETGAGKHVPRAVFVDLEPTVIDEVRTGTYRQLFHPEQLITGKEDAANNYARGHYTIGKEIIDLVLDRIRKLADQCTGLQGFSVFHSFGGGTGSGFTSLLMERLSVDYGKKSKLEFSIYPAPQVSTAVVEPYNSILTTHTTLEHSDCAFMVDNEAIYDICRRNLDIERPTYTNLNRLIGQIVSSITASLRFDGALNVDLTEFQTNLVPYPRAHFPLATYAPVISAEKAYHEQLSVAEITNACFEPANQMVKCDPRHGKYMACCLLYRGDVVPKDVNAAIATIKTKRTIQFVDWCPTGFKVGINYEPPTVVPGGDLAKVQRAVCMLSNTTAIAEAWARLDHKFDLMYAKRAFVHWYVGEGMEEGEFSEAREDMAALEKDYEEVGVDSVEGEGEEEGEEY
Sequence (P02554 whole entry partner): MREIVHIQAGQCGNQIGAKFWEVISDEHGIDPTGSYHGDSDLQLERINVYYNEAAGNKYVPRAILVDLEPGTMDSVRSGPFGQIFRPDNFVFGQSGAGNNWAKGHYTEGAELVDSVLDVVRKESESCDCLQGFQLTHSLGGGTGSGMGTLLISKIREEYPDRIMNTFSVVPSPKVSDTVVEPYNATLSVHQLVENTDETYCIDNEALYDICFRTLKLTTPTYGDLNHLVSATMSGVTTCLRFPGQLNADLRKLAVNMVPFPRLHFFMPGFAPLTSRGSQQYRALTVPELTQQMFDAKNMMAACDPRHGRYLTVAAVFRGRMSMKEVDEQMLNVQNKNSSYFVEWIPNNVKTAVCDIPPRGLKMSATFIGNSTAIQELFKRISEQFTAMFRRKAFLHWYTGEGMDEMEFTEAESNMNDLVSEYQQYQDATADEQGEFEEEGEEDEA
Test Description: KIF18A enzyme assay (microtubule-stimulated ATPase activity, ADP-Glo)
Cond: 30 nM KIF18A, 75 μM ATP, 30 μg/mL pig microtubules; read-out: Inhibitory activity against KIF18A IC50

Query :: Returns the measured IC50 for the input compound. Input: O=C(Nc1ccc([N+](=O)[O-])c(OC2CCC2)n1)c1ccc(NS(=O)(=O)CCO)cc1N1CCC2(CC1)CC2
Result :: ≤ 100 nM

Query :: Requested field: IC50. Item: C[C@@H](CO)NS(=O)(=O)c1cc(N2CCC3(CC2)CC3)c(C(=O)Nc2ccc([N+](=O)[O-])c(N3CCC(F)(F)CC3)c2)cn1
Result :: ≤ 100 nM

Query :: Which value of IC50 has been reported for C[C@@H]1CN(c2cc(C(=O)Nc3cnc(NS(=O)(=O)CCO)cc3N3CCC4(CC3)CC4)ccc2[N+](=O)[O-])CCO1 in the records?
Result :: ≤ 100 nM
